Reference source for all entries: patent US12624044B2

Would you mind telling me the reported DC50 of each entry?
# SUBJECT_OF_TEST: SMARCA4 (Homo sapiens)
# Construct: SMARCA2 and SMARCA4 protein degradation in MV4-11 cells; endogenous in cells; host or cells: MV4-11
# Sequence (P51532 whole entry): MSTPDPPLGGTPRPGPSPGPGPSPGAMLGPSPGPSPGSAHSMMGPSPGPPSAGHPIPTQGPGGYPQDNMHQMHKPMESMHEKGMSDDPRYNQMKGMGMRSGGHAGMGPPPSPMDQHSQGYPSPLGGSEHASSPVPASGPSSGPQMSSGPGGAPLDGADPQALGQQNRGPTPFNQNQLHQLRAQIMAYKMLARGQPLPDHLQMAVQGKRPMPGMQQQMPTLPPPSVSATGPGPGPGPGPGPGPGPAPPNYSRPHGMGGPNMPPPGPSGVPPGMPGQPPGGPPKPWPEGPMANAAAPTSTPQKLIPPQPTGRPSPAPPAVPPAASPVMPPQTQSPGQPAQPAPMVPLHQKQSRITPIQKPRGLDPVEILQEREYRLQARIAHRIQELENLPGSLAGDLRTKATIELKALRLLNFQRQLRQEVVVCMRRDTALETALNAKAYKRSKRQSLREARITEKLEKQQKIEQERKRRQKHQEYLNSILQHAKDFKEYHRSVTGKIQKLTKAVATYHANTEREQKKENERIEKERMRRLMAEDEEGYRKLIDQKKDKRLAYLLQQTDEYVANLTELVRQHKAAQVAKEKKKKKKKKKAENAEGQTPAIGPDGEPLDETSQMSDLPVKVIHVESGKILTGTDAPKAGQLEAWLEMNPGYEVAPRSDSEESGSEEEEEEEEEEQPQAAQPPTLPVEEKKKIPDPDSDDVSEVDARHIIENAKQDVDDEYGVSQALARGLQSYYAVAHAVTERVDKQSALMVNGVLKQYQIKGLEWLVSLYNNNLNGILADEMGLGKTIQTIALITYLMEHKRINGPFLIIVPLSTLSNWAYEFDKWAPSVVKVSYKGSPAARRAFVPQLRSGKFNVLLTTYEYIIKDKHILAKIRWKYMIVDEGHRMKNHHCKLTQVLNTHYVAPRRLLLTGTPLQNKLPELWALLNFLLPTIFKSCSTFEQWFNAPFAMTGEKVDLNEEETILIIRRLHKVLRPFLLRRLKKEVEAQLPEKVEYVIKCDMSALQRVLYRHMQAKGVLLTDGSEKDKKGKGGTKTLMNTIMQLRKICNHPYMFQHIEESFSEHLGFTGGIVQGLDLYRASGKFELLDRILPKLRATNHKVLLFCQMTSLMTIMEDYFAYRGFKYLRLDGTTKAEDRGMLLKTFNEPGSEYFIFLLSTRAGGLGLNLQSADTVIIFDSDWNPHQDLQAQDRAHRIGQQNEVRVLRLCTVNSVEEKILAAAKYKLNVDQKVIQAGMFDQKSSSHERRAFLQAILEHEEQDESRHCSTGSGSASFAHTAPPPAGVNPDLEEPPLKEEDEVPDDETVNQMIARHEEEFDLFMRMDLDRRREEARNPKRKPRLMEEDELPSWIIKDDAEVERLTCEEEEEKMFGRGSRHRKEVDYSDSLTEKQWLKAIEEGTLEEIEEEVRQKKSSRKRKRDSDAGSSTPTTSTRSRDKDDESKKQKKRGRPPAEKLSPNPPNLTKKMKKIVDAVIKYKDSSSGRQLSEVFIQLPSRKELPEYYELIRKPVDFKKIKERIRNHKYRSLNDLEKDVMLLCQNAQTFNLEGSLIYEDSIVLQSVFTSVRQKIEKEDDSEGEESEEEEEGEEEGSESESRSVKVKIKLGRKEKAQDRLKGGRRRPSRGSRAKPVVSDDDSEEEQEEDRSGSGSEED
# ASSAY_EXPLANATION: SMARCA4 Western blot MV4-11 degradation
# Type: cell-based
# ASSAY_CONDITIONS: MV4-11 cells, 24 h, read-out: SMARCA4 WB MV411 degradation 24 h: Average external-Abs DC50

Reported SMARCA4 (Homo sapiens) DC50 for item Cc1ncsc1-c1ccc(CNC(=O)[C@@H]2C[C@@H](O)CN2C(=O)[C@@H](NC(=O)C2CCC(c3cnc(N4C5CCC4CN(c4cc(-c6ccccc6O)nnc4N)C5)nc3)CC2)C(C)(C)C)cc1 (some centres unmarked) [I-503] was < 100 nM

Reported SMARCA4 (Homo sapiens) DC50 for item Cn1c(=O)n(C2CCC(=O)NC2=O)c2ccc(CCCN3CCN(c4cnc(N5C6CCC5CN(c5cc(-c7ccccc7O)nnc5N)C6)nc4)CC3)cc21 (centres unmarked) [I-285] was < 100 nM

Reported SMARCA4 (Homo sapiens) DC50 for item Cc1ncsc1-c1ccc(CNC(=O)[C@@H]2C[C@@H](O)CN2C(=O)[C@@H](NC(=O)CN2CCC(Cn3cc(-c4cc(-c5ccccc5O)nnc4N)cn3)CC2)C(C)(C)C)cc1 [I-465] was 100 to 500 nM

Reported SMARCA4 (Homo sapiens) DC50 for item CC(C)(C)[C@H](NC(=O)C1(F)CC1)C(=O)N1C[C@H](O)C[C@H]1C(=O)NCc1ccc(-c2scnc2-c2ccc3cn[nH]c3c2)cc1OCCc1ccc(CN2CCN(c3cc(-c4ccccc4O)nnc3N)CC2)cc1 [I-447] was < 100 nM

Reported SMARCA4 (Homo sapiens) DC50 for item Cc1ncsc1-c1ccc(CNC(=O)[C@@H]2C[C@@H](O)CN2C(=O)[C@@H](NC(=O)C2CCC(c3cnc(N4C5CCC4CN(c4cc(-c6ccccc6O)nnc4N)C5)nc3)CC2C)C(C)(C)C)cc1 (some centres unmarked) [I-444] was < 100 nM

====

# SUBJECT_OF_TEST: SMARCA2 (Homo sapiens)
# Sequence (P51531 whole entry): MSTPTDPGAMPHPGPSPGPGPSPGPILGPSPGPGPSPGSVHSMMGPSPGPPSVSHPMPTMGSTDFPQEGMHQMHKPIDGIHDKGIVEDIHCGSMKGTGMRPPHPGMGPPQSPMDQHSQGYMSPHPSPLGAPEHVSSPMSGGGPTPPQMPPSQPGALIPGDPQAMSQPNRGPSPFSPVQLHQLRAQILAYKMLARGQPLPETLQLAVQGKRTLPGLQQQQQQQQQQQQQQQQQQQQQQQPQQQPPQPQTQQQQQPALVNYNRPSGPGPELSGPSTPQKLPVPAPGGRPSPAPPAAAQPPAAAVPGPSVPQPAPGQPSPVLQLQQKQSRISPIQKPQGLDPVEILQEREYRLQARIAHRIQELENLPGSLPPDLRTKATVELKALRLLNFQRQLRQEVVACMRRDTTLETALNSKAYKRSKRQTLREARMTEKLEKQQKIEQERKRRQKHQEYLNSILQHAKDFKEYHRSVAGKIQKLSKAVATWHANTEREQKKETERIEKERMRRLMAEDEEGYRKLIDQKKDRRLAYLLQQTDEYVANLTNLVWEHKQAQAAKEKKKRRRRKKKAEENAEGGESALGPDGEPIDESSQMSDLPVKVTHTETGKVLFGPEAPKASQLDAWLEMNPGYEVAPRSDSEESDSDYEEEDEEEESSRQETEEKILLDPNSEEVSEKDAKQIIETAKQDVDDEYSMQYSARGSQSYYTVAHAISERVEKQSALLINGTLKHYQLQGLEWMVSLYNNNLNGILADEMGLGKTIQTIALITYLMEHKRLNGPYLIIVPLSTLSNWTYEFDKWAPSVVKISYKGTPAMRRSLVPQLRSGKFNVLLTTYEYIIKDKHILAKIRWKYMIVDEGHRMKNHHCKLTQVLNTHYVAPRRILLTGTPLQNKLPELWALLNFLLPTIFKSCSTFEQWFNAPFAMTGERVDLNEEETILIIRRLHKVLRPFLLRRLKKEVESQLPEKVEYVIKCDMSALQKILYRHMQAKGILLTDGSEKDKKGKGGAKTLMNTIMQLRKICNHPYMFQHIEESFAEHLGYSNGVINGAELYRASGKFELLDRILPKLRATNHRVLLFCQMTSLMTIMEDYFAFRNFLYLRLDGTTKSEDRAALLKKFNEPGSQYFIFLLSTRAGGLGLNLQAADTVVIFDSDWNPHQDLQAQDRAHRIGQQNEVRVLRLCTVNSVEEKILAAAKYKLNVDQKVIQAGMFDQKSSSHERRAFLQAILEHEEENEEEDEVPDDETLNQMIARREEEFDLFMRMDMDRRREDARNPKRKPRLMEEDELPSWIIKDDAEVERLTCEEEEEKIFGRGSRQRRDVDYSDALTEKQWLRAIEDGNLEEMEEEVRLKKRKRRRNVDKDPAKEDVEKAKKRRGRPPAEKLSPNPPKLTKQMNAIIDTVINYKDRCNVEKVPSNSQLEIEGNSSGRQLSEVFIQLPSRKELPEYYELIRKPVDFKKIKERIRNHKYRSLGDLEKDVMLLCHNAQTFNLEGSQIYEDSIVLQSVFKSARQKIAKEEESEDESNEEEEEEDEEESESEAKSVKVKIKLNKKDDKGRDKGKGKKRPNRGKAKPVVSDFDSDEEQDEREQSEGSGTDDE
# ASSAY_EXPLANATION: MSD SMARCA2 degradation in NCI-H1299 cell line (24 h)
# Assay type: cell-based
# Design: HC: NCI-H1299 cells treated with DMSO; host or cells: NCI-H1299
# ASSAY_CONDITIONS: NCI-H1299 cells, read-out: SMARCA2 MSD H1299 degradation 24 h: External Abs-DC50
Would you mind telling me the reported DC50 of each entry?

Reported SMARCA2 (Homo sapiens) DC50 for item Cn1c(=O)n(C2CCC(=O)NC2=O)c2ccc(CCCN3CCN(Cc4ccc(-c5cc(-c6ccccc6O)nnc5N)cc4)CC3)cc21 (centres unmarked) was < 100 nM

Reported SMARCA2 (Homo sapiens) DC50 for item Cn1c(=O)n(C2CCC(=O)NC2=O)c2ccc(CCCCNC(=O)Cc3cnc(N4C5CCC4CN(c4cc(-c6ccccc6O)nnc4N)C5)nc3)cc21 (centres unmarked) was < 100 nM

Reported SMARCA2 (Homo sapiens) DC50 for item COc1cc(C(=O)NCCCCCNCc2ccc(N3CCN(c4cc(-c5ccccc5O)nnc4N)CC3)cc2)ccc1NC(=O)[C@@H]1N[C@@H](CC(C)(C)C)[C@](C#N)(c2ccc(Cl)cc2F)[C@H]1c1cccc(Cl)c1F was > 1000 nM

Reported SMARCA2 (Homo sapiens) DC50 for item Cn1c(=O)n(C2CCC(=O)NC2=O)c2cccc(CCCCCN3CCC(n4cc(-c5cc(-c6ccccc6O)nnc5N)cn4)CC3)c21 (centres unmarked) was < 100 nM

Reported SMARCA2 (Homo sapiens) DC50 for item Cn1c(=O)n(C2CCC(=O)NC2=O)c2ccc(CN3CC[C@@H](OCCCN4CCN(Cc5ccc(-c6cc(-c7ccccc7O)nnc6N)cc5)CC4)C3)cc21 (some centres unmarked) was 100 to 500 nM

Reported SMARCA2 (Homo sapiens) DC50 for item Cn1c(=O)n(C2CCC(=O)NC2=O)c2ccc(CNCCc3cn(Cc4cccc(N5C[C@H]6C[C@@H]5CN6/C=C/C(=O)c5ccccc5O)n4)nn3)cc21 (some centres unmarked) was > 1000 nM

Reported SMARCA2 (Homo sapiens) DC50 for item Cc1ncsc1-c1ccc(CNC(=O)[C@@H]2C[C@@H](O)CN2C(=O)[C@@H](NC(=O)CCCCCCCN(C)Cc2ccc(N3CCN(c4cc(-c5ccccc5O)nnc4N)CC3)cc2)C(C)(C)C)cc1 was 501 to 1000 nM

Reported SMARCA2 (Homo sapiens) DC50 for item Nc1nnc(-c2ccccc2O)cc1N1CCN(c2ccc(CNCCOCCOCCCc3ccc4c(c3)oc(=O)n4C3CCC(=O)NC3=O)cc2)CC1 (centres unmarked) was 100 to 500 nM

Reported SMARCA2 (Homo sapiens) DC50 for item Cn1c(=O)n(C2CCC(=O)NC2=O)c2cccc(CCCOCCCCN3CCN(Cc4ccc(-c5cc(-c6ccccc6O)nnc5N)cc4)CC3)c21 (centres unmarked) was 100 to 500 nM

Reported SMARCA2 (Homo sapiens) DC50 for item Cc1ncsc1-c1ccc(CNC(=O)[C@@H]2C[C@@H](O)CN2C(=O)[C@@H](NC(=O)COCCOCCOCCOCCOCCOCCNC(=O)CCCCCCCCOc2ccc(N3C[C@H]4C[C@@H]3CN4/C=C/C(=O)c3ccccc3O)nc2)C(C)(C)C)cc1 was > 1000 nM

Reported SMARCA2 (Homo sapiens) DC50 for item Cc1ncsc1-c1ccc(CNC(=O)[C@@H]2C[C@@H](O)CN2C(=O)[C@@H](NC(=O)CCCCCN(C)Cc2ccc(N3CCN(c4cc(-c5ccccc5O)nnc4N)CC3)cc2)C(C)(C)C)cc1 was > 1000 nM

====

# SUBJECT_OF_TEST: UniProt:P51531
# ASSAY_EXPLANATION: MSD SMARCA2 degradation in NCI-H1299 cell line (24 h)
# Format: cell-based
# Parameters: HC: NCI-H1299 cells treated with DMSO; host or cells: NCI-H1299
# ASSAY_CONDITIONS: NCI-H1299, NCI-H1299 cells
Would you mind telling me the reported Dmax of each entry?

Looking up Cc1ncsc1-c1ccc(CNC(=O)[C@@H]2C[C@@H](O)CN2C(=O)[C@@H](NC(=O)CN2CCC(Cn3cc(-c4cc(-c5ccccc5O)nnc4N)cn3)CC2)C(C)(C)C)cc1 [I-465] , I found its Dmax recorded as < 50%

Looking up CN(Cc1ccc(N2CCN(c3cc(-c4ccccc4O)nnc3N)CC2)cc1)C[C@@H]1CN(CCCc2cccc3c2n(C)c(=O)n3C2CCC(=O)NC2=O)CCO1 (stereo partly drawn) [I-117] , I found its Dmax recorded as 70 to 90%

Looking up Cc1ncsc1-c1ccc(CNC(=O)[C@@H]2C[C@@H](O)CN2C(=O)[C@@H](NC(=O)CCCCCN2CCC(c3cnc(N4C5CCC4CN(c4cc(-c6ccccc6O)nnc4N)C5)nc3)CC2)C(C)(C)C)cc1 [I-210] , I found its Dmax recorded as > 90%

Looking up Cn1c(=O)n(C2CCC(=O)NC2=O)c2ccc(CCCCCCCN3CCC(n4cc(-c5cc(-c6ccccc6O)nnc5N)cn4)CC3)cc21 (stereo not drawn) [I-184] , I found its Dmax recorded as < 50%

Looking up Cn1c(=O)n(C2CCC(=O)NC2=O)c2ccc(CCCOCCOCCOCCN3CCN(Cc4ccc(-c5cc(-c6ccccc6O)nnc5N)cc4)CC3)cc21 (stereo not drawn) [I-134] , I found its Dmax recorded as 50 to 70%

Looking up Cn1c(=O)n(C2CCC(=O)NC2=O)c2ccc(CCCCCCCCN3CCC(Cn4cc(-c5cc(-c6ccccc6O)nnc5N)cn4)CC3)cc21 (stereo not drawn) [I-147] , I found its Dmax recorded as 70 to 90%

====

# SUBJECT_OF_TEST: SMARCA4 (Homo sapiens)
# Construct: SMARCA2 and SMARCA4 protein degradation in MV4-11 cells; endogenous in cells; host or cells: MV4-11
# ASSAY_EXPLANATION: SMARCA4 Western blot MV4-11 degradation
# Assay type: cell-based
# ASSAY_CONDITIONS: MV4-11 cells, 24 h, read-out: SMARCA4 WB MV411 degradation 24 h: Average external-Abs DC50
QUANTITY_KIND: DC50

Looking up Cc1ncsc1-c1ccc(CNC(=O)[C@@H]2C[C@@H](O)CN2C(=O)[C@@H](NC(=O)CCCCN2CCC(Cn3cc(-c4cc(-c5ccccc5O)nnc4N)cn3)CC2)C(C)(C)C)cc1 , I found its DC50 recorded as 0.1 to 0.5 µM

Looking up Cn1c(=O)n(C2CCC(=O)NC2=O)c2cccc(CCCN3CCCC(c4cnc(N5C6CCC5CN(c5cc(-c7ccccc7O)nnc5N)C6)nc4)C3)c21 (stereo not shown) , I found its DC50 recorded as < 0.1 µM

Looking up Cc1ncsc1-c1ccc(CNC(=O)[C@@H]2C[C@@H](O)CN2C(=O)[C@@H](NC(=O)CN2CCCC(n3cc(-c4cc(-c5ccccc5O)nnc4N)cn3)C2)C(C)(C)C)cc1 (stereo partly shown) , I found its DC50 recorded as 0.1 to 0.5 µM

Looking up Cc1ncsc1-c1ccc(CNC(=O)[C@@H]2C[C@@H](O)CN2C(=O)[C@@H](NC(=O)[C@H]2C[C@H](N3CCC(c4cnc(N5C6CCC5CN(c5cc(-c7ccccc7O)nnc5N)C6)nc4)CC3)C2)C(C)(C)C)cc1 , I found its DC50 recorded as < 0.1 µM

Looking up Cc1ncsc1-c1ccc(CNC(=O)[C@@H]2C[C@@H](O)CN2C(=O)[C@@H](NC(=O)[C@@H]2CCN(Cc3cnc(N4C5CCC4CN(c4cc(-c6ccccc6O)nnc4N)C5)nc3)C2)C(C)(C)C)cc1 , I found its DC50 recorded as 0.1 to 0.5 µM

Looking up Cc1ncsc1-c1ccc(CNC(=O)[C@@H]2C[C@@H](O)CN2C(=O)[C@@H](NC(=O)c2ccc(-c3ccc(CN4CCC(Cn5cc(-c6cc(-c7ccccc7O)nnc6N)cn5)CC4)cc3)cc2)C(C)(C)C)cc1 , I found its DC50 recorded as < 0.1 µM

Looking up Cc1ncsc1-c1ccc(CNC(=O)[C@@H]2C[C@@H](O)CN2C(=O)[C@@H](NC(=O)[C@H]2CC[C@H](CCCN3CCC(n4cc(-c5cc(-c6ccccc6O)nnc5N)cn4)CC3)CC2)C(C)(C)C)cc1 , I found its DC50 recorded as 0.1 to 0.5 µM

Looking up COc1ccccc1-c1cc(N2CC3CCC(C2)N3c2ncc([C@H]3CC[C@@H](CC(=O)N[C@H](C(=O)N4C[C@H](O)C[C@H]4C(=O)NCc4ccc(-c5scnc5C)cc4)C(C)(C)C)CC3)cn2)c(N)nn1 , I found its DC50 recorded as < 0.1 µM

Looking up Cc1ncsc1-c1ccc(CNC(=O)[C@@H]2C[C@@H](O)CN2C(=O)[C@@H](NC(=O)[C@H]2CC[C@H](CN(C)Cc3cnc(N4C5CCC4CN(c4cc(-c6ccccc6O)nnc4N)C5)nc3)CC2)C(C)(C)C)cc1 , I found its DC50 recorded as 0.1 to 0.5 µM

Looking up Cc1ncsc1-c1ccc(CNC(=O)[C@@H]2C[C@@H](O)CN2C(=O)[C@@H](NC(=O)COCCCc2cnc(N3C4CCC3CN(c3cc(-c5ccccc5O)nnc3N)C4)nc2)C(C)(C)C)cc1 , I found its DC50 recorded as < 0.1 µM
